tested on: ABL1 (human), P00519 [M351T]; assay: KINOMEscan competition binding; details: compound 10.0 µM
Measured kinase still bound, per cent of control values are reported for all entries that follow.
VALUE TYPE: kinase still bound, per cent of control

# MOLECULE, VALUE TYPE, MEASURED
measured = [
    ("CCN(CCO)CCCOc1ccc2c(Nc3cc(CC(=O)Nc4cccc(F)c4)[nH]n3)ncnc2c1", "kinase still bound, per cent of control", "39%"),
    ("COc1ccc(N(C(=O)Oc2cc(C(=O)Nc3cccc(C(F)(F)F)c3)ccc2C)c2ccnc(Nc3ccc(N4CCN(C)CC4)cc3)n2)c(OC)c1", "kinase still bound, per cent of control", "1.4%"),
    ("CCCS(=O)(=O)Nc1ccc(F)c(C(=O)c2c[nH]c3ncc(Cl)cc23)c1F", "kinase still bound, per cent of control", "46%"),
    ("CNC(=O)Nc1ccc(-c2nc(N3CC4CCC(C3)O4)c3cnn(C4CCC5(CC4)OCCO5)c3n2)cc1", "kinase still bound, per cent of control", "100%"),
    ("NC(=O)Nc1cc(-c2cccc(F)c2)sc1C(=O)N[C@@H]1CCCNC1", "kinase still bound, per cent of control", "0%"),
    ("C=CC(=O)Nc1cccc(Nc2nc(N[C@H]3CC[C@H](N(C)C)CC3)nc3c2ncn3C(C)C)c1", "kinase still bound, per cent of control", "71%"),
    ("COc1cc(N2CCN(C)CC2)ccc1Nc1nc(N)c(C(=O)c2c(Cl)cccc2Cl)s1", "kinase still bound, per cent of control", "84%"),
    ("O=C1Nc2ccc(I)cc2/C1=C/c1cc(Br)c(O)c(Br)c1", "kinase still bound, per cent of control", "77%"),
    ("C=CC(=O)Nc1ccc(C(=O)c2sc(Nc3ccc(N4CCN(C)CC4)cc3OC)nc2N)cc1", "kinase still bound, per cent of control", "82%"),
    ("COc1cc(C(=O)NC2CCN(C)CC2)ccc1Nc1ncc2c(n1)N(C1CCCC1)C(C)CC(=O)N2C (centres undefined)", "kinase still bound, per cent of control", "100%"),
    ("CCN(CC)CCCCNc1ncc2c(n1)N(C)C(=O)N(c1c(Cl)c(OC)cc(OC)c1Cl)C2", "kinase still bound, per cent of control", "100%"),
    ("Cn1c(=O)n(-c2ccc(C(C)(C)C#N)cc2)c2c3cc(-c4cnc5ccccc5c4)ccc3ncc21", "kinase still bound, per cent of control", "100%"),
    ("COc1cc2ncn(-c3cc(OCc4ccccc4C(F)(F)F)c(C(N)=O)s3)c2cc1OC", "kinase still bound, per cent of control", "81%"),
    ("CCC(=O)N1CCN(c2ccc(-n3c(=O)ccc4cnc5ccc(-c6cnc7ccccc7c6)cc5c43)cc2C(F)(F)F)CC1", "kinase still bound, per cent of control", "100%"),
    ("C[C@@H](Oc1cc(-n2cnc3ccc(CN4CCN(C)CC4)cc32)sc1C(N)=O)c1ccccc1C(F)(F)F", "kinase still bound, per cent of control", "93%"),
    ("O=C1NC(=O)/C(=C/c2ccc3nccc(-c4ccncc4)c3c2)S1", "kinase still bound, per cent of control", "56%"),
    ("Cc1ccc2nc(NCCN)c3ncc(C)n3c2c1", "kinase still bound, per cent of control", "100%"),
    ("O=c1cc(N2CCOCC2)oc2c(-c3cccc4c3sc3ccccc34)cccc12", "kinase still bound, per cent of control", "100%"),
    ("Cc1cc([C@@H](C)Nc2ccccc2C(=O)O)c2nc(N3CCOCC3)cc(=O)n2c1", "kinase still bound, per cent of control", "94%"),
]

Origin of values: the kinase profiling compilation of Christmann-Franck et al. (2016)
